System: NCI/ADR-RES ovarian
Assay: NCI tumour cell line growth inhibition, 48 h
quantityMeasured: TGI (µM)

compound | boundSign | observedMeasurement
O=[N+]([O-])/C=C/c1cc2ccccc2[nH]1 | = | 98.2
NC(=O)NC(=O)c1cccc(CNc2ccc(C(=O)N[C@@H](CCC(=O)O)C(=O)O)cc2)n1 | > | 100
OC[C@]1(n2nc3ccccc3n2)OC[C@@H]1c1ccccc1 | > | 100
S=P1(N2CCCCC2)Oc2ccc3ccccc3c2-c2c(ccc3ccccc23)O1 | > | 100
O=C(CCCNc1nc(-c2ccccc2)cs1)c1cccs1 | > | 100
CCCCCCCC/C=C\CCCCCCCC(=O)O | = | 196
COc1cc(C=C2C(C)=NN(c3cccc(Cl)c3)C23C(Cl)C(=O)N3c2nc3ccccc3s2)ccc1O (stereo unspecified) | > | 100
Oc1ccccc1C=Nc1ccc(-c2nc3ccccc3[nH]2)cc1 | = | 53.2
[N-]=[N+]=Nc1c(C=O)c(=O)n(-c2ccccc2)c2ccccc12 | = | 88.5
S=C(Nc1ccc(Cl)cc1)Nc1ccc(-c2nc3ccccc3o2)cc1 | = | 58.7
CN1CCCCC(C#N)(c2ccccc2)CC1 (stereo unspecified) | > | 100
CC(C)(C)OC(=O)N(O)CCCn1cnc2c(N)ncnc21 | > | 100
CC(C)OP(=O)(OC(C)C)/C(C#N)=C/c1ccco1 | > | 100
COc1cc(C(=O)O[C@@H]2[C@@H](OC(=O)c3cc(OC)c(OC)c(OC)c3)[C@@H](OC)O[C@@H]3CO[C@@H](c4ccccc4)O[C@@H]23)cc(OC)c1OC | > | 100
CCN(CC)CCCn1c(=O)c2ccccc2n2c3c(=O)n(C)c(=O)n(C)c3nc12 | = | 47.2
COC(C(=O)C(O)C(C)O)C1CC2C=C3C=C(OC4CC(OC5CC(O)C(OC)C(C)O5)C(OC(C)=O)C(C)O4)C(C)C(=O)C3=C(O)C2=C(O)C1OC1CC(OC2CC(OC3CC(C)(O)C(OC(=O)C(C)C)C(C)O3)C(O)C(C)O2)C(O)C(C)O1 (stereo unspecified) | = | 0.425
COc1cc(NC(C)=O)ccc1C(=O)NN1C(=O)C(Cl)C1c1ccco1 (stereo unspecified) | > | 100
CC#C/C(=N\OC[C@H]1COCCN1)c1ccc2ncnc(Nc3ccc(OCc4cccc(F)c4)c(Cl)c3)c2c1 | = | 2.87
O=C(/C=C1\C[C@H]2C=Nc3ccccc3C(=O)N2C1)NCCCCNC(=O)/C=C1\C[C@H]2C=Nc3ccccc3C(=O)N2C1 | = | 47.1
COC(=O)Nc1nc2ccc(C(=O)c3ccc(N(C)C4COC4)cc3)cc2[nH]1 | > | 100
Cn1c(-c2cccs2)cc(-c2cccs2)c1-c1ccco1 | > | 100

Values from PubChem BioAssay (NCI)
